# test method notes: in vitro
# condition label: Klebsiella pneumoniae, not told
assay readout: Papp (×10⁻⁶ cm/s)
Give bare numbers, in ×10⁻⁶ cm/s.

Query block: Indicate its recorded Papp; the compound in question is C[C@H]1[C@H](NC(=O)/C(=N\OC(C)(C)C(=O)O)c2csc(N)n2)C(=O)N1S(=O)(=O)O [Aztreonam, aztreonam]
Result block: 0.74

----------
# test method notes: in vitro
# condition label: Klebsiella pneumoniae, not told, pH 7, Avg OM permeability coefficient (nm/s) ± SD, Cassette K. pneumoniae, efflux: with 25 mg/liter PAβN; two biological replicates
assay readout: Papp (×10⁻⁶ cm/s)
Give bare numbers, in ×10⁻⁶ cm/s.

C[C@@H](O)[C@H]1C(=O)N2C(C(=O)O)=C(SCCN=CN)C[C@H]12
72.3

Then this molecule:
Query block: Indicate its recorded Papp; the molecule in question is C[C@@H](O)[C@H]1C(=O)N2C(C(=O)O)=C(S[C@@H]3CN[C@H](C(=O)N(C)C)C3)[C@H](C)[C@H]12
Result block: 5.75
